System: INS-1E rat beta cells, no cytokines, CellTiter-Glo ATP, 48 h
Test: cytokine-free beta-cell viability effect – INS-1E rat cells, ATP luminescence, cherry pick, counter-screen for beta-cell apoptosis protection project, dose response (AID 463229)
Activity calls are given as the source filed them.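 The calls were made as follows: active = compounds raising the signal whose fitted half-maximal concentration is at or below their top tested dose (cut at about 25 µM in these data); inconclusive = flat fit at 30 to 70% activity, or a poor fit; inactive = the rest.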
Classes used: active, inactive

[
  {
    "compound": "COc1cccc(/C=N/NC(=O)CN2CC(c3ccccc3)CC2=O)c1O (configuration not stated)",
    "discrete_label": "active"
  },
  {
    "compound": "COc1ccc(C(=O)NC(=S)NNC(=O)c2cnccn2)cc1",
    "discrete_label": "active"
  },
  {
    "compound": "O=C(NNC(=O)c1ccccc1OCc1ccc(F)cc1)c1ccccc1O",
    "discrete_label": "active"
  },
  {
    "compound": "CCc1ccc2[nH]c3nc(N/N=C/c4ccc(O)cc4O)nnc3c2c1",
    "discrete_label": "active"
  },
  {
    "compound": "CCC1CCCCN1C(=O)c1cc(COc2ccc(-n3cncn3)cc2)on1 (configuration not stated)",
    "discrete_label": "active"
  },
  {
    "compound": "CC#CC[N+](C)(C)CCCCCCCCCCCC",
    "discrete_label": "active"
  },
  {
    "compound": "Cn1cccc1C1C=C(c2ccc(C(C)(C)C)cc2)Nc2ncnn21 (configuration not stated)",
    "discrete_label": "active"
  },
  {
    "compound": "COc1ccc(C2NCCc3c2[nH]c2ccccc32)cc1COc1ccc(F)cc1 (configuration not stated)",
    "discrete_label": "active"
  },
  {
    "compound": "CCc1ccc(C2CC(c3cccc(Cl)c3)n3nc(N)nc3N2)cc1 (configuration not stated)",
    "discrete_label": "active"
  },
  {
    "compound": "CCCCC(CC)CN1C(=O)/C(=C/c2ccncc2)SC1=S (configuration not stated)",
    "discrete_label": "inactive"
  },
  {
    "compound": "C=CC[n+]1c(/C=C2\\C=Cc3cc(C)ccc3N2CC)ccc2ccccc21",
    "discrete_label": "active"
  },
  {
    "compound": "NC(=S)N/N=C/c1ccc(C23CC4CC(CC(C4)C2)C3)cc1",
    "discrete_label": "active"
  },
  {
    "compound": "COc1ccc(C(=O)N/N=C(\\c2ccccc2)c2ccccn2)cc1",
    "discrete_label": "active"
  },
  {
    "compound": "C/C(=N\\NC(=O)c1cc(-c2cccs2)nc2ccccc12)c1ccccn1",
    "discrete_label": "active"
  },
  {
    "compound": "COc1ccc(-c2cn(-c3ccc(Cl)cc3)c3[n+]2CCCCC3)cc1",
    "discrete_label": "active"
  },
  {
    "compound": "C/C(=N\\NC(=O)c1cc(Br)ccc1O)c1ccccn1",
    "discrete_label": "active"
  },
  {
    "compound": "CCC(C)Sc1ccc(-c2nc3ccc(C)cn3c2NCc2ccccc2)cc1OC (configuration not stated)",
    "discrete_label": "active"
  },
  {
    "compound": "CCn1c(=NC(=O)c2ccc(S(=O)(=O)N3CCOCC3)cc2)sc2cccc(OC)c21",
    "discrete_label": "active"
  },
  {
    "compound": "O=c1cc(N2CCN(c3cccc(Cl)c3)CC2)[nH]c(=O)n1C1CCCCC1",
    "discrete_label": "active"
  },
  {
    "compound": "CC(=O)c1c(C)[nH]c(C(=O)OCCCCN2C(=O)c3ccccc3C2=O)c1C",
    "discrete_label": "active"
  },
  {
    "compound": "CC[C@H]1CN2CCc3cc(OC)c(OC)cc3[C@@H]2C[C@@H]1C[C@H]1NCCc2cc(OC)c(OC)cc21",
    "discrete_label": "active"
  },
  {
    "compound": "S=C(Nc1ccc(Cl)cc1)Nc1cccc2cnccc12",
    "discrete_label": "active"
  },
  {
    "compound": "Cc1cc(C)cc(Oc2cc(NC(=O)c3cn(C)nc3C)cc([N+](=O)[O-])c2)c1",
    "discrete_label": "active"
  },
  {
    "compound": "CNc1nc(N/N=C/c2cc3c(cc2[N+](=O)[O-])OCO3)nc(Nc2ccccc2)n1",
    "discrete_label": "active"
  },
  {
    "compound": "O=C1/C(=C\\c2cccnc2)CN(Cc2ccccc2)C/C1=C\\c1cccnc1",
    "discrete_label": "active"
  },
  {
    "compound": "O=C(Nc1cc(S(=O)(=O)Nc2ccc(Cl)cc2)ccc1N1CCCCC1)c1ccc(F)cc1",
    "discrete_label": "active"
  },
  {
    "compound": "CCCOc1cc(NCc2ccccc2)c2ncn(C(C)C)c2c1",
    "discrete_label": "active"
  },
  {
    "compound": "CC(C)[C@H]1C(=O)O[C@H](C(C)C)C(=O)N(C)[C@@H](C(C)C)C(=O)O[C@H](C(C)C)C(=O)N(C)[C@@H](C(C)C)C(=O)O[C@H](C(C)C)C(=O)N1C",
    "discrete_label": "active"
  },
  {
    "compound": "COc1ccc(-c2csc(NC(=O)c3ccccc3NS(=O)(=O)c3ccc(F)c(F)c3)n2)cc1",
    "discrete_label": "active"
  },
  {
    "compound": "OCCNc1nc(Nc2ccc(Cl)c(Cl)c2)nc2ccccc12",
    "discrete_label": "active"
  },
  {
    "compound": "CC1CCC(C(C)C)C(OC(=O)Cn2c(COc3ccccc3)[n+](C)c3ccccc32)C1 (configuration not stated)",
    "discrete_label": "active"
  },
  {
    "compound": "CCCC(=O)NC(c1ccc(OC)cc1)c1ccc2cccnc2c1O (configuration not stated)",
    "discrete_label": "active"
  },
  {
    "compound": "N#CCSc1nc2ccccc2c2nc3ccccc3n12",
    "discrete_label": "active"
  },
  {
    "compound": "CCOC(=O)c1cnc(-n2nc(C)cc2C)nc1NC(C)c1ccccc1 (configuration not stated)",
    "discrete_label": "active"
  },
  {
    "compound": "CCCOc1ccc(Cc2c(Cl)nc(SC)nc2NC)cc1",
    "discrete_label": "active"
  },
  {
    "compound": "Cc1ccc(NC(=O)COc2ccc(N(C)C(=O)C(C)(C)C)cc2)cc1S(=O)(=O)N1CCCCC1",
    "discrete_label": "active"
  },
  {
    "compound": "Oc1ccc(-c2n[nH]c(C(F)(F)F)c2-c2ccccc2)c(O)c1",
    "discrete_label": "active"
  },
  {
    "compound": "Cc1c2ccncc2c(C)c2c1[nH]c1ccccc12",
    "discrete_label": "active"
  },
  {
    "compound": "O=C(NC(NC(=S)Nc1ccc(Cl)cc1Cl)C(Cl)(Cl)Cl)c1cccc([N+](=O)[O-])c1 (configuration not stated)",
    "discrete_label": "active"
  },
  {
    "compound": "O=C(Nc1nc(NC(=O)c2ccco2)n(-c2ccccc2)n1)c1ccccc1",
    "discrete_label": "active"
  },
  {
    "compound": "Cn1c(NN=O)nc2ccccc21",
    "discrete_label": "active"
  },
  {
    "compound": "O=S(=O)([N-]c1nc2ccccc2nc1-[n+]1ccc(Cc2ccccc2)cc1)c1ccc(Br)s1",
    "discrete_label": "active"
  }
]

These data points were gathered from PubChem BioAssay AID463229.
